# Assay protocol: Plasma and tissue distribution in SD rats
# Type: in vivo
# Condition info: male, Sprague-Dawley (SD); M SD rat, Eye

Smiles repr: C[C@@H](c1ccc(Nc2cc(Nc3ncc(F)cc3S(C)(=O)=O)ncn2)nc1)N1CC2(COC2)C1
Unit spec: µg/mL
Cmax: 0.535

---

# Assay protocol: Plasma and tissue distribution in SD rats
# Assay type: in vivo
# Condition info: male SD rat, PO 10 mg/kg, Skin
Measurement kind: Tmax (min)

Compound: C[C@@H](c1ccc(Nc2cc(Nc3ncccc3S(C)(=O)=O)ncn2)nc1)N1CC2(COC2)C1 [Compound 1]
Measurement kind: Tmax
Unit spec: min
Quantitative result: 30

---

# Assay protocol: Plasma and tissue distribution in SD rats
# Type: in vivo
# Condition info: female, Sprague-Dawley (SD), rat, eye, F SD rat, Eye; read-out: AUClast
Measurement kind: AUC(0-t) (µg·h/mL)

Compound: C[C@@H](c1ccc(Nc2cc(Nc3ncc(F)cc3S(C)(=O)=O)ncn2)nc1)N1CC2(COC2)C1 [Compound 2]
Measurement kind: AUC(0-t)
Unit spec: µg·h/mL
Quantitative result: 4.88

---

# Target under test: TYK2-JH2 (Homo sapiens)
# Construct: TYK JH2 enzyme mix (ChemPartner: CP20210818A-BV); purchased ChemPartner CP20210818A-BV
# Sequence (P29597 589-875 limits assumed): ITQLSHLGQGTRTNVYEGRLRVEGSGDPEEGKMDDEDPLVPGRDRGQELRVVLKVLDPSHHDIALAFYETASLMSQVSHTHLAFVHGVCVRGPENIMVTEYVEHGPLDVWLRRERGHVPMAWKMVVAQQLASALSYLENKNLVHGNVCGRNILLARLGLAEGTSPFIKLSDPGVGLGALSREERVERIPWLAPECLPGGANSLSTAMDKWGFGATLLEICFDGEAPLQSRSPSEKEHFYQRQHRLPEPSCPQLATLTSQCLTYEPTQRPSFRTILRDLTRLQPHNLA
# Assay protocol: TYK2-JH2 HTRF binding assay (ligand efficiency)
# Condition info: calculated from binding-assay IC50 (Equation 1)

Molecule: CC1(Nc2cnc(Nc3cc(Nc4ncccc4S(C)(=O)=O)ncn3)cn2)COC1
Ligand Efficiency: ††† (†††: >0.39)

Molecule: Cc1ccnc(Nc2cc(Nc3ccccc3C(N)=O)ncn2)n1
Ligand Efficiency: ††† (†††: >0.39)

Molecule: CS(=O)(=O)c1cccnc1Nc1cc(Nc2ccc(N3CCN(C4CC4)CC3)cn2)ncn1
Ligand Efficiency: ††† (†††: >0.39)

Molecule: CS(=O)(=O)c1ccccc1Nc1cc(Nc2ccc(C3(NC4COC4)CC3)cn2)ncn1
Ligand Efficiency: †† (††: 0.37-0.39)

Molecule: Cc1cccc(Nc2cc(Nc3ccccc3C(N)=O)nc(N)n2)n1
Ligand Efficiency: †† (††: 0.37-0.39)

Molecule: CC(C)(NC1COC1)c1ccc(Nc2cc(Nc3ccccc3S(C)(=O)=O)ncn2)nc1
Ligand Efficiency: †† (††: 0.37-0.39)

Molecule: CC(c1ccc(Nc2cc(Nc3ncccc3S(C)(=O)=O)ncn2)nc1C(F)(F)F)N1CC2(COC2)C1 (stereo in doubt)
Ligand Efficiency: †† (††: 0.37-0.39)

---

# Assay protocol: Plasma and tissue distribution in SD rats
# Format: in vivo
# Condition info: female; F SD rat, Skin
Measurement kind: Tmax (min)

Smiles repr: C[C@@H](c1ccc(Nc2cc(Nc3ncc(F)cc3S(C)(=O)=O)ncn2)nc1)N1CC2(COC2)C1
Measurement kind: Tmax
Quantitative result: 30

---

# Assay protocol: Plasma and tissue distribution in SD rats
# Assay type: in vivo
# Condition info: male, Sprague-Dawley (SD); M SD rat, Bone Marrow
Measurement kind: Tmax (min)

Smiles repr: C[C@@H](c1ccc(Nc2cc(Nc3ncc(F)cc3S(C)(=O)=O)ncn2)nc1)N1CC2(COC2)C1
Quantitative result: 30

---

# Assay protocol: Plasma and tissue distribution in SD rats
# Assay type: in vivo
# Condition info: Sprague-Dawley; plasma, female SD rat, PO 10 mg/kg
Measurement kind: Cmax

Compound: C[C@@H](c1ccc(Nc2cc(Nc3ncccc3S(C)(=O)=O)ncn2)nc1)N1CC2(COC2)C1 [Compound 1]
Measurement kind: Cmax
Result: 1180 ng/mL

---

# Assay protocol: Plasma and tissue distribution in SD rats
# Assay type: in vivo
# Condition info: female SD rat, PO 10 mg/kg, Liver

Smiles repr: C[C@@H](c1ccc(Nc2cc(Nc3ncccc3S(C)(=O)=O)ncn2)nc1)N1CC2(COC2)C1
Tmax [min]: 30

---

# Assay protocol: Plasma and tissue distribution in SD rats
# Assay type: in vivo
# Condition info: male, Sprague-Dawley; M SD rat, Bladder

Smiles repr: C[C@@H](c1ccc(Nc2cc(Nc3ncc(F)cc3S(C)(=O)=O)ncn2)nc1)N1CC2(COC2)C1
Tmax / min: 33.6

---

# Assay protocol: Plasma and tissue distribution in SD rats
# Assay type: in vivo
# Condition info: male, Sprague-Dawley; M SD rat, Skin; read-out: AUCINF_obs

Molecule: C[C@@H](c1ccc(Nc2cc(Nc3ncc(F)cc3S(C)(=O)=O)ncn2)nc1)N1CC2(COC2)C1 [Compound 2]
AUC0-inf [ng·h/mL]: 8020

---

# Assay protocol: Plasma and tissue distribution in SD rats
# Format: in vivo
# Condition info: female, Sprague-Dawley (SD), large intestine; F SD rat, L. Intestine

Smiles repr: C[C@@H](c1ccc(Nc2cc(Nc3ncc(F)cc3S(C)(=O)=O)ncn2)nc1)N1CC2(COC2)C1
Tmax, h: 2

---

# Assay protocol: Plasma and tissue distribution in SD rats
# Type: in vivo
# Condition info: male, SD, rat, skin / plasma, po, 10 mg/kg, male SD rat, PO 10 mg/kg, Skin; Tissue AUC0-last/Plasma AUC0-last; read-out: AUC Ratio

Smiles repr: C[C@@H](c1ccc(Nc2cc(Nc3ncccc3S(C)(=O)=O)ncn2)nc1)N1CC2(COC2)C1
Kp: 2.91

---

# Assay protocol: Plasma and tissue distribution in SD rats
# Assay type: in vivo
# Condition info: male, Sprague-Dawley (SD); M SD rat, Eye

Smiles repr: C[C@@H](c1ccc(Nc2cc(Nc3ncc(F)cc3S(C)(=O)=O)ncn2)nc1)N1CC2(COC2)C1
Unit spec: h
Tmax: 2.6

---

# Assay protocol: Plasma and tissue distribution in SD rats
# Format: in vivo
# Condition info: male, Sprague-Dawley (SD), rat, kidney, M SD rat, Kidney; read-out: AUClast

Smiles repr: C[C@@H](c1ccc(Nc2cc(Nc3ncc(F)cc3S(C)(=O)=O)ncn2)nc1)N1CC2(COC2)C1
AUC(0-t), ng·h/mL: 32600
